Taken from paper PMC5540273.

What %Inh was measured for each of the following?
Tested on: HIPK4
Conditions: concentration: 1 μM, replicates: in singlicate; n = 1;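 further: KINOMEscan kinase panel screen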
Give bare numbers, in %.

Use the examples below as a reference point.
                                   compound  system  reported_value
0  CNC(=O)c1ccc(C)c(-n2c(C)cc(OCc3ccc(F)cc3F)c(Br)c2=O)c1   HIPK4               0
1  FC(F)(F)c1ccccc1-c1cc(-c2c[nH]nc2-c2ccccn2)ccn1 [GW679396]   HIPK4               0
2   c1ccc(-c2ccnc3[nH]ccc23)cc1 [SB-693578]   HIPK4               0

# per-item lookup of %Inh; items listed below
1. Cn1cncc1-c1cc2c(Nc3ccc(OCc4ccccc4)cc3)ncnc2cn1 [GW281179]
2. CSc1ccc(-c2nc3n(c2-c2ccncc2)CCC3)cc1 [SKF-105561]
3. Cc1ccc(NC(=O)Nc2ccc(Cl)cc2)cc1-c1ccc(C(=O)Nc2ccncc2)cc1 [GSK1398472]
4. COc1nccc(-c2c(-c3ccc(F)cc3)ncn2CCCN2CCOCC2)n1 [SB-282852]

# output
0
2
0
0

# per-item lookup of %Inh; items listed below
1. CC(C)c1cc(-c2ccc3c(N)n[nH]c3c2)nc(N)n1 [GSK2250882]
2. CC[C@@H]1CO[C@H](C(=O)Nc2ccccc2)CN1c1cc(-c2ccc3c(N)n[nH]c3c2)nc(NC)n1 [GSK2376236]

# output
[30, 0]

###

What %Inh was measured for each of the following?
System: AMPK-alpha1
Construct: gene PRKAA1
Settings: concentration: 1 μM, replicates: in singlicate; n = 1
Numbers only, in %.

Use the examples below as a reference point.
                                   compound  readout_unit  reported_value
0  CNC(=O)c1ccc(C)c(-n2c(C)cc(OCc3ccc(F)cc3F)c(Br)c2=O)c1             %               0
1  CN1c2ccc(-c3ccc(C(N)=O)cc3)cc2-c2[nH]ncc2S1(=O)=O             %               0
2  Cn1cncc1C(=O)NC1CCN(c2ccnc(Nc3ccc(F)cc3)n2)C1 (stereo not drawn) [GSK1379717]             %               0
3  COc1cccc(CNC(=O)NC2CCN(c3ccnc(Nc4ccc(F)cc4)n3)C2)c1 (stereo not drawn) [GSK1379723]             %               0

# per-item lookup of %Inh; items listed below
1. O=c1cc(N2CCOCC2)nc2n(Cc3cccc(Cl)c3Cl)c3ccccc3n12 [GSK2299009]
2. CC(=O)c1c(C)c2cnc(Nc3ccn(C)n3)nc2n(C2CCCC2)c1=O
3. Cc1cccc2c(-c3ccncn3)c(-c3ccc(F)cc3)nn12 [GW515532]
4. COc1nccc(-c2c(-c3ccc(F)cc3)ncn2CCCN2CCOCC2)n1 [SB-282852]
5. CCCCc1nn2ncccc2c1-c1ccnc(NC2CC2)n1 [GW684374]
6. Cc1nccc(-c2c(-c3ccc(F)cc3)ncn2CCCN2CCOCC2)n1.Cl [SB-282975]

# output
5
20
3
77
0
0

# per-item lookup of %Inh; items listed below
1. Cc1ccc(-c2nc(Nc3ccncc3)c3ccccc3n2)s1 [GSK189015]
2. Fc1ccc(-c2nc[nH]c2-c2ccncc2)cc1 [SB-217360]
3. Cc1ccccc1Cn1ccn2c(=O)cc(N3CCOCC3)nc12 [GSK2269905]
4. Nc1nccc(-c2c(-c3ccc(F)cc3)ncn2C2CCN(Cc3ccccc3)CC2)n1 [SB-219980]
5. COc1ccc(CSc2nnc(-c3ccc4c(c3)CCO4)o2)cc1

# output
1: 0; 2: 5; 3: 0; 4: 0; 5: 0
